assay_target: KRAS G12D binding to BRAF (Homo sapiens, UniProt P01116+P62937, G12D)
Sequence (P01116 1-188 isoform P01116-2 G12D): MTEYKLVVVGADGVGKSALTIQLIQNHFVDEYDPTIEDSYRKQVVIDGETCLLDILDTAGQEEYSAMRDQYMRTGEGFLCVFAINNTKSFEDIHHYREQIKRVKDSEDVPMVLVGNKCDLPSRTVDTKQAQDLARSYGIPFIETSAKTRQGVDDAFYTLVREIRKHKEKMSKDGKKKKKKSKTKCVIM
Sequence (P62937 whole entry): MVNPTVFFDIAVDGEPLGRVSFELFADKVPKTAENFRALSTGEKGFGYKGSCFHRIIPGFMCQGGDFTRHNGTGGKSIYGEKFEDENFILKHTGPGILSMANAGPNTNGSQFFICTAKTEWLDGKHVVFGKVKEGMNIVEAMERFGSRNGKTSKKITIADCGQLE
test_name: KRAS-BRAF with CYPA (500 nM) interaction assay (TR-FRET), G12D
Assay type: biochemical
experimental_conditions: 3 hours
quantity: IC50 (µM)
State just the number; it will be interpreted in µM.

// below: answered compounds
- compound: "CO[C@@H](C)c1ncc(N2CCN(C)CC2)cc1-c1c2c3cc(c(F)cc3n1CC(F)(F)F)-c1csc(n1)C[C@H](NC(=O)[C@H](C(C)C)N(C)C(=O)c1ccc(C#CC(F)(F)F)cc1)C(=O)N1CCC[C@H](N1)C(=O)OCC(C)(C)C2 (atropisomer, axis not shown; (M))"
  reading_unit: "µM"
  IC50: 0.142
- compound: "CO[C@@H](C)c1ncc(N2CCN(C)CC2)cc1-c1c2c3cc(c(F)cc3n1CC(F)(F)F)-c1csc(n1)C[C@H](NC(=O)[C@H](C(C)C)N(C)C(=O)[C@H]1CC[C@@H](C#CC(F)(F)F)CC1)C(=O)N1CCC[C@H](N1)C(=O)OCC(C)(C)C2 (atropisomer, axis not shown; (M))"
  reading_unit: "µM"
  IC50: 1.91
- compound: "CO[C@@H](C)c1ncc(N2CCN(C)CC2)cc1-c1c2c3c(F)c(ccc3n1CC(F)(F)F)-c1csc(n1)C[C@H](NC(=O)[C@H](C(C)C)N(C)C(=O)[C@H]1C[C@@H](C#CC(F)(F)F)C1)C(=O)N1CCC[C@H](N1)C(=O)OCC(C)(C)C2 (atropisomer, axis not shown; (M))"
  reading_unit: "µM"
  IC50: 1.47

Q) I am curious: what IC50 value has been reported for CO[C@@H](C)c1ncc(N2CCN(C)CC2)cc1-c1c2c3cc(c(F)cc3n1CC(F)(F)F)-c1csc(n1)C[C@H](NC(=O)[C@H](C(C)C)N(C)C(=O)[C@H]1CC[C@H](C#CC(F)(F)F)CC1)C(=O)N1CCC[C@H](N1)C(=O)OCC(C)(C)C2 (atropisomer, axis not shown; (M)) ?
A) 3.01

====

Reported values of IC50 for individual entries
Tested on: phosphorylation of ERK, KRAS G12C in NCI-H358 cells
test_name: pERK inhibition assay, G12C
Format: cell-based, human
experimental_conditions: Homo sapiens; NCI-H358, 4 hours of incubation

// below: answered molecules
- molecule: "CO[C@@H](C)c1ncc(N2CCN(C)CC2)cc1-c1c2c3cc(c(F)cc3n1CC(F)(F)F)-c1csc(n1)C[C@H](NC(=O)[C@H](C(C)C)N(C)C(=O)[C@H]1C[C@@H](C#Cc3ncc(C(F)(F)F)cn3)C1)C(=O)N1CCC[C@H](N1)C(=O)OCC(C)(C)C2 (atropisomer, axis not shown; (M))"
  IC50: "0.045 µM"
- molecule: "CO[C@@H](C)c1ncc(N2CCOCC2)cc1-c1c2c3cc(c(F)cc3n1CC(F)(F)F)-c1csc(n1)C[C@H](NC(=O)[C@H](C(C)C)N(C)C(=O)[C@H]1C[C@@H](C#CC(F)(F)F)C1)C(=O)N1CCC[C@H](N1)C(=O)OCC(C)(C)C2 (atropisomer, axis not shown; (M))"
  IC50: "0.013 µM"
- molecule: "CO[C@@H](C)c1ncc(N2CCN(C)CC2)cc1-c1c2c3cc(c(F)cc3n1CC(F)(F)F)-c1csc(n1)C[C@H](NC(=O)[C@H](C(C)C)N(C)C(=O)N1CC(C#CC(F)(F)F)C1)C(=O)N1CCC[C@H](N1)C(=O)OCC(C)(C)C2 (atropisomer, axis not shown; (M))"
  IC50: "0.013 µM"

Q) Field: IC50 (phosphorylation of ERK, KRAS G12C in NCI-H358 cells). Entry: CCn1c(-c2cc(N3CCOCC3)cnc2[C@H](C)OC)c2c3cc(c(F)cc31)-c1csc(n1)C[C@H](NC(=O)[C@H](C(C)C)N(C)C(=O)[C@H]1C[C@@H](C#Cc3nccc(C(F)(F)F)n3)C1)C(=O)N1CCC[C@H](N1)C(=O)OCC(C)(C)C2 (atropisomer, axis not shown; (M))
A) 0.019 µM

Q) Field: IC50 (phosphorylation of ERK, KRAS G12C in NCI-H358 cells). Entry: CO[C@@H](C)c1ncc(N2CCN(C)CC2)cc1-c1c2c3cc(c(F)cc3n1CC(F)(F)F)-c1csc(n1)C[C@H](NC(=O)[C@H](C(C)C)N(C)C(=O)[C@H]1C[C@H](C#CC(F)(F)F)C1)C(=O)N1CCC[C@H](N1)C(=O)OCC(C)(C)C2 (atropisomer, axis not shown; (M))
A) 0.035 µM

Q) Field: IC50 (phosphorylation of ERK, KRAS G12C in NCI-H358 cells). Entry: CC#CC(=O)N1CC[C@H](C(=O)N(C)[C@H](C(=O)N[C@H]2Cc3nc(cs3)-c3ccc4c(c3)c(c(-c3cccnc3[C@H](C)OC)n4CC)CC(C)(C)COC(=O)[C@@H]3CCCN(N3)C2=O)C(C)C)C1 [Example A168, reference compound]
A) 0.053 µM

Q) Field: IC50 (phosphorylation of ERK, KRAS G12C in NCI-H358 cells). Entry: CO[C@@H](C)c1ncc(N2CCN(C)CC2)cc1-c1c2c3cc(c(F)cc3n1CC(F)(F)F)-c1csc(n1)C[C@H](NC(=O)[C@H](C(C)C)N(C)C(=O)[C@H]1C[C@@H](C#CC(F)(F)F)C1)C(=O)N1CCC[C@H](N1)C(=O)OCC(C)(C)C2 (atropisomer, axis not shown; (M))
A) 0.007 µM
